# System: SPNE 9912
# assaySummary: Minimum inhibitory concentration (MIC) by agar dilution
# Format: cell-based
# testSettings: Streptococcus pneumoniae, lowest concentration of drug that inhibits visible growth of the organism, strain SPNE 9912, read-out: Antibacterial Activity, Minimum Inhibitory Concentration (MIC μg/mL) SPNE 9912
readoutType: MIC (µg/mL)

1. O=C(NC[C@H]1CN(c2ccc(C3C=CS(=O)(=O)CC3)c(F)c2)C(=O)O1)C(Cl)Cl (stereo partly shown)
0.5

I = O=C1O[C@@H](CNC(=S)C(F)F)CN1c1cc(F)c(C2C=CS(=O)(=O)CC2)c(F)c1 (stereo partly shown)
II = COC(=O)NC[C@H]1CN(c2ccc(C3C=CS(=O)(=O)CC3)cc2)C(=O)O1 (stereo partly shown)
III = CC(=O)NC[C@H]1CN(c2ccc(C3C=CS(=O)(=O)CC3)cc2)C(=O)O1 (stereo partly shown)
# ascending order, key=MIC Note for the reader: the ranking is given by listing the labels in the order requested. I, III, II
(I: 0.5 µg/mL, III: 1 µg/mL, II: 2 µg/mL)

###

The entries below come with measured melting point values attached.

Worked set:
1) O=C1O[C@@H](CNC(=S)C(F)F)CN1c1ccc(C2C=CS(=O)(=O)CC2)cc1 (some centres unmarked)
139 to 140 °C
2) O=C(NC[C@H]1CN(c2ccc(C3C=CS(=O)(=O)CC3)cc2)C(=O)O1)C(F)F (some centres unmarked)
135 to 136 °C
3) CC(=O)NC[C@H]1CN(c2ccc(C3C=CS(=O)(=O)CC3)cc2)C(=O)O1 (some centres unmarked)
187 to 189 °C
4) CCC(=O)NC[C@H]1CN(c2ccc(C3C=CS(=O)(=O)CC3)cc2)C(=O)O1 (some centres unmarked)
144 to 147 °C
5) COC(=O)NC[C@H]1CN(c2ccc(C3C=CS(=O)(=O)CC3)cc2)C(=O)O1 (some centres unmarked)
196 to 197 °C
6) O=C(NC[C@H]1CN(c2ccc(C3C=CS(=O)(=O)CC3)c(F)c2)C(=O)O1)C(Cl)Cl (some centres unmarked)
148 to 150 °C
7) O=C(NC[C@H]1CN(c2ccc(C3C=CS(=O)(=O)CC3)cc2)C(=O)O1)C(Cl)Cl (some centres unmarked)
159 to 161 °C

Could you now look at the following compound, please?
Fill blank: measured melting point of the compound CC(=O)NC[C@H]1CN(c2ccc(N3C=CS(=O)(=O)CC3)c(F)c2)C(=O)O1 is ____. 193 to 194 °C

###

# System: SPNE 9912
# assaySummary: Minimum inhibitory concentration (MIC) by agar dilution
# Type: cell-based
# testSettings: Streptococcus pneumoniae, lowest concentration of drug that inhibits visible growth of the organism, strain SPNE 9912, read-out: Antibacterial Activity, Minimum Inhibitory Concentration (MIC μg/mL) SPNE 9912
# Excerpt: Compounds of this invention have useful activity against a variety of organisms. The in vitro activity of compounds of this invention can be assessed by standard testing procedures such as the determination of minimum inhibitory concentration (MIC) by agar dilution as described in “Approved Standard. Methods for Dilution Antimicrobial Susceptibility Tests for Bacteria That Grow Aerobically”, 3rd. ed., published 1993 by the National Committee for Clinical Laboratory Standards, Villanova, Pa., USA. […]
readoutType: MIC (µg/mL)

Worked set:
1. O=C(NC[C@H]1CN(c2ccc(N3C=CS(=O)(=O)CC3)cc2)C(=O)O1)C(Cl)Cl [Example 25]
1
2. CC(=O)NC[C@H]1CN(c2cc(F)c(N3C=CS(=O)(=O)CC3)c(F)c2)C(=O)O1 [Example 8]
0.5
3. O=C1O[C@@H](CNC(=S)C(F)F)CN1c1ccc(C2C=CS(=O)(=O)CC2)cc1 (stereo partly shown) [Example 17]
0.25
4. CC(=O)NC[C@H]1CN(c2ccc(C3C=C[S+]([O-])CC3)c(F)c2)C(=O)O1 (stereo partly shown) [Example 4]
1

P = O=C(NC[C@H]1CN(c2ccc(C3C=CS(=O)(=O)CC3)cc2)C(=O)O1)C(F)F (stereo partly shown) [Example 15]
Q = O=C(NC[C@H]1CN(c2ccc(N3C=CS(=O)(=O)CC3)c(F)c2)C(=O)O1)C(Cl)Cl [Example 22]
API: POST /compare with P and Q ; response names the item with higher MIC. I would appreciate it if you answered with the label of your choice. P
(P: 0.5 µg/mL, Q: 0.25 µg/mL)

a = O=C1O[C@@H](CNC(=O)C(F)(F)F)CN1c1ccc(C2C=CSCC2)c(F)c1 (stereo partly shown) [Example 1]
b = O=C(NC[C@H]1CN(c2cc(F)c(C3C=CS(=O)(=O)CC3)c(F)c2)C(=O)O1)C(F)F (stereo partly shown) [Example 30]
c = O=C1O[C@@H](CNC(=S)C(F)F)CN1c1cc(F)c(N2C=CS(=O)(=O)CC2)c(F)c1 [Example 27]
# ascending order, key=MIC Note for the reader: the ranking is given by listing the labels in the order requested. c, b, a

A = O=C(NC[C@H]1CN(c2ccc(N3C=CS(=O)(=O)CC3)cc2)C(=O)O1)C(F)F [Example 26]
B = O=C1O[C@@H](CNC(=S)C(F)F)CN1c1ccc(N2C=CS(=O)(=O)CC2)c(F)c1 [Example 21]
API: POST /compare with A and B ; response names the item with higher MIC. I would appreciate it if you answered with the label of your choice. A

A = CC(=O)NC[C@H]1CN(c2ccc(C3C=CSCC3)c(F)c2)C(=O)O1 (stereo partly shown) [Example 2]
B = O=C(NC[C@H]1CN(c2cc(F)c(N3C=CS(=O)(=O)CC3)c(F)c2)C(=O)O1)C(F)F [Example 29]
API: POST /compare with A and B ; response names the item with higher MIC. I would appreciate it if you answered with the label of your choice. A
(A: 1 µg/mL, B: 0.5 µg/mL)

Reference for the values: patent US6884813B2
